FYI, the data here is from ChEMBL document CHEMBL4251608.

Tested on: Human alphaherpesvirus 1
methodSummary: Antiviral activity against acyclovir-resistant HSV1 KOS harboring TK- mutant infected in HEL cells assessed as reduction in virus-induced cytopathic effect after 2 to 3 days
Type: functional, organism-based
conditionContext: Human alphaherpesvirus 1, KOS
Reported values of EC50 for individual entries

Consider the following illustrative entries.
O=c1c[n+]([O-])ccn1[C@H]1C[C@H](O)[C@@H](CO)O1 > 438 µM
CCc1cn([C@H]2C[C@H](O)[C@@H](CO)O2)c(=O)c[n+]1[O-] > 390 µM
O=c1c[n+]([O-])ccn1[C@@H]1C[C@H](O)[C@@H](CO)O1 > 438 µM
Cc1cn([C@@H]2C[C@H](O)[C@@H](CO)O2)c(=O)c[n+]1[O-] > 412 µM

Next molecule, please.
Assay Human alphaherpesvirus 1, sample `CCc1cn([C@@H]2C[C@H](O)[C@@H](CO)O2)c(=O)c[n+]1[O-]` , EC50 read: > 390 µM
